Provide the recorded IC50 for the entries that follow.
Molecular target: Nonstructural protein 1 (Influenza A virus)
Sequence (Q194T2 whole entry): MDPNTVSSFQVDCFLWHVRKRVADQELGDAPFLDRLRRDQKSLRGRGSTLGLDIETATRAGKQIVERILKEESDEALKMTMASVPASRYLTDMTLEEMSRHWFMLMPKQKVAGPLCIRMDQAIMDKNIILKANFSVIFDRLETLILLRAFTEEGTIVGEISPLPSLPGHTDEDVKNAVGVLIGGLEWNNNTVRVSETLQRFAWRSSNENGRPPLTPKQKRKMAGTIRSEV
Type: functional, Influenza A virus (A/California/07/2009(H1N1))
The source made the active and inactive calls.

Which value of IC50 has been reported for `COC(=O)c1ccc2c(c1)C(C)(C)C(/C=C/c1ccccc1O)=[N+]2C.[I-]` in the records?
22.7 µM (active)

Please look up its IC50: COc1cc(O)c(C(CCN2CCN(c3ccccc3)CC2)c2ccc(N(C)C)cc2)c(OC)c1 (configuration not stated)
18.2 µM (active)

I would be grateful if you could share the reported IC50 for `CN(C)c1ccc(Cc2ccc(N(C)C)cc2)cc1` .
36.6 µM (active)

Consider the molecule `COc1cc(OC)c(NC2=CC(=O)C(=O)c3ccccc32)cc1Cl` and give its measured IC50.
> 100 µM (active)

For the molecule shown here, `CN(C)c1ccc(CN2CC=C(c3ccc(F)cc3)CC2)cc1` , give the reported IC50.
50.2 µM (active)

Recorded IC50 of `O=[N+]([O-])c1ccc(C[n+]2cccc3ccc4cccnc4c32)cc1` , please.
7.75 µM (active)

Record request: IC50 value, item `CN1c2ccccc2N(C)C1(C)c1cccc2ccccc12`
39.3 µM (active)

From: ChEMBL document CHEMBL1201862
